- Test system: A549 cells
- PROTOCOL_NOTES: MTT cytotoxicity assay, A549
- Type: cell-based, human
- CONDITION_CONTEXT: 48 h, read-out: IC50 toward A549
MEASURED_ENDPOINT: pIC50
The read-out pIC50 is expressed as -log10 of concentration in moles per litre.

{"COMPOUND": "F[P-](F)(F)(F)(F)F.Nc1c([N+](=O)[O-])c2cccnc2c2ncccc12.[Ir+3].[c-]1ccccc1-c1ccccn1.[c-]1ccccc1-c1ccccn1 [Complex 2, [Ir(Hppy)2(NAP)]PF6]", "pIC50": 4.09}
{"COMPOUND": "N.N.[Cl][Pt][Cl] [Cisplatin, reference compound]", "pIC50": 5.12}

// output pIC50; input F[P-](F)(F)(F)(F)F.O=[N+]([O-])c1cc2ccc[n+]3c2c2c1ccc[n+]2[Ir-5]312([c]3ccccc3-c3cccc[n+]31)[c]1ccccc1-c1cccc[n+]12 [Complex 1, [Ir(Hppy)2(NP)]PF6] ; system A549 cells 4.84
